The reported numbers originate from ChEMBL document CHEMBL3576816.

Tested on: Dengue virus
experiment.summary: Antiviral activity against Dengue virus infected in BHK pD2-hRucPac-2ATG cells assessed as inhibition of viral replication at 10 uM after 3 days by luciferase reporter gene assay relative to control
Assay type: functional
condition.info: 72 h
# inhibition at 10 µM >= 2% gives T, anything below gives F

>  <smiles>
Cc1cn([C@H]2C[C@H](n3nncc3-c3ccccc3)[C@@H](CO)O2)c(=O)[nH]c1=O

>  <class.name>
F

$$$$
>  <smiles>
Cc1cn([C@H]2C[C@H](NC(=O)c3ccc4ccccc4n3)[C@@H](CO[Si](C)(C)C(C)(C)C)O2)c(=O)[nH]c1=O

>  <class.name>
T

$$$$
>  <smiles>
Cc1cn([C@H]2C[C@H](n3nncc3-c3ccc(-c4ccccc4)cc3)[C@@H](CO)O2)c(=O)[nH]c1=O

>  <class.name>
T

$$$$
>  <smiles>
Cc1cn([C@H]2C[C@H](n3nncc3-c3cc4ccccc4c4ccccc34)[C@@H](CO[Si](C)(C)C(C)(C)C)O2)c(=O)[nH]c1=O

>  <class.name>
T

$$$$
>  <smiles>
Cc1cn([C@H]2C[C@H](NC(=O)C(c3ccccc3)(c3ccccc3)c3ccccc3)[C@@H](CO[Si](C)(C)C(C)(C)C)O2)c(=O)[nH]c1=O

>  <class.name>
T

$$$$
>  <smiles>
COC[C@H]1O[C@@H](n2cc(C)c(=O)n(C)c2=O)C[C@@H]1n1nncc1-c1ccc2cc(OC)ccc2c1

>  <class.name>
F

$$$$

* * *

Tested on: West Nile virus
experiment.summary: Antiviral activity against West Nile virus infected in BHK-WII RepRen1B cells assessed as inhibition of viral replication at 10 uM after 3 days by luciferase reporter gene assay relative to control
Format: functional
condition.info: 72 h
Below: a set of entries, each annotated with reported inhibition at 10 µM.

>  <compound>
Cc1cn([C@H]2C[C@H](N3C(=O)CSC3c3c4ccccc4cc4ccccc34)[C@@H](CO[Si](C)(C)C(C)(C)C)O2)c(=O)[nH]c1=O (mixture of isomers)

>  <inhibition at 10 µM (%)>
85

$$$$
>  <compound>
Cc1cn([C@H]2C[C@H](n3nncc3-c3ccc(-c4ccccc4)cc3)[C@@H](CO[Si](C)(C)C(C)(C)C)O2)c(=O)[nH]c1=O

>  <inhibition at 10 µM (%)>
100

$$$$
>  <compound>
Cc1cn([C@H]2C[C@H](NC(=O)c3ccc4ccccc4c3)[C@@H](CO[Si](C)(C)C(C)(C)C)O2)c(=O)[nH]c1=O

>  <inhibition at 10 µM (%)>
99

$$$$
>  <compound>
Cc1cn([C@H]2C[C@H](n3nncc3COc3ccccc3)[C@@H](CO)O2)c(=O)[nH]c1=O

>  <inhibition at 10 µM (%)>
0

$$$$
>  <compound>
COc1ccc2cc(-c3cnnn3[C@H]3C[C@H](n4cc(C)c(=O)[nH]c4=O)O[C@@H]3CO[Si](C)(C)C(C)(C)C)ccc2c1

>  <inhibition at 10 µM (%)>
97

$$$$
>  <compound>
Cc1cn([C@H]2C[C@H](n3nncc3C3CC3)[C@@H](CO)O2)c(=O)[nH]c1=O

>  <inhibition at 10 µM (%)>
0

$$$$
>  <compound>
Cc1cn([C@H]2C[C@H](NC(=O)C(c3ccccc3)(c3ccccc3)c3ccccc3)[C@@H](CO)O2)c(=O)[nH]c1=O

>  <inhibition at 10 µM (%)>
0

$$$$

* * *

experiment.summary: Cytotoxicity against BHK cells infected with Dengue virus replicon assessed as cell viability at 10 uM after 3 days by CellTiter 96 aqueous one solution cell proliferation assay relative to control
Type: cell-based, Mesocricetus auratus
condition.info: hamster, bhk, 72 h, 10 µM
Recorded Activity, one value per entry.
quantity: Activity (%)

>  <smiles>
Cc1cn([C@H]2C[C@H](N)[C@@H](CO[Si](C)(C)C(C)(C)C)O2)c(=O)[nH]c1=O

>  <quantity>
Activity

>  <readout.number>
100

$$$$
>  <smiles>
Cc1cn([C@H]2C[C@H](NC(=O)c3cccc4ccccc34)[C@@H](CO[Si](C)(C)C(C)(C)C)O2)c(=O)[nH]c1=O

>  <quantity>
Activity

>  <readout.number>
99

$$$$
>  <smiles>
Cc1cn([C@H]2C[C@H](NC(=O)C(c3ccccc3)(c3ccccc3)c3ccccc3)[C@@H](CO)O2)c(=O)[nH]c1=O

>  <quantity>
Activity

>  <readout.number>
94

$$$$
>  <smiles>
Cc1cn([C@H]2C[C@H](n3nncc3-c3ccc(-c4ccccc4)cc3)[C@@H](CO)O2)c(=O)[nH]c1=O

>  <quantity>
Activity

>  <readout.number>
92

$$$$

* * *

Attribute: Activity
experiment.summary: Cytotoxicity against BHK cells infected with Dengue virus replicon assessed as cell viability at 10 uM after 3 days by CellTiter 96 aqueous one solution cell proliferation assay relative to control
Type: cell-based, Mesocricetus auratus
condition.info: hamster, bhk, 72 h, 10 µM

>  <molecule>
COc1ccc2cc(-c3cnnn3[C@H]3C[C@H](n4cc(C)c(=O)[nH]c4=O)O[C@@H]3CO[Si](C(C)C)(C(C)C)C(C)C)ccc2c1

>  <Activity / %>
53

$$$$
>  <molecule>
Cc1cn([C@H]2C[C@H](NC(=O)c3c4ccccc4cc4ccccc34)[C@@H](CO[Si](C)(C)C(C)(C)C)O2)c(=O)[nH]c1=O

>  <Activity / %>
98

$$$$
>  <molecule>
COc1ccc2cc(C(=O)N[C@H]3C[C@H](n4cc(C)c(=O)[nH]c4=O)O[C@@H]3CO[Si](C)(C)C(C)(C)C)ccc2c1

>  <Activity / %>
8

$$$$
>  <molecule>
Cc1cn([C@H]2C[C@H](N3C(=O)CSC3c3ccc4[nH]ccc4c3)[C@@H](CO)O2)c(=O)[nH]c1=O (mixture of isomers)

>  <Activity / %>
95

$$$$
>  <molecule>
COc1ccc(C(OC[C@H]2O[C@@H](n3cc(C)c(=O)[nH]c3=O)C[C@@H]2n2nncc2-c2ccc3cc(OC)ccc3c2)(c2ccccc2)c2ccc(OC)cc2)cc1

>  <Activity / %>
93

$$$$
>  <molecule>
Cc1cn([C@H]2C[C@H](NC(=O)c3ccc4ccccc4c3)[C@@H](CO[Si](C)(C)C(C)(C)C)O2)c(=O)[nH]c1=O

>  <Activity / %>
10

$$$$
>  <molecule>
Cc1cn([C@H]2C[C@H](n3nncc3-c3ccccc3)[C@@H](CO[Si](C)(C)C(C)(C)C)O2)c(=O)[nH]c1=O

>  <Activity / %>
93

$$$$
>  <molecule>
Cc1cn([C@H]2C[C@H](n3nncc3-c3cccc4ccccc34)[C@@H](CO[Si](C)(C)C(C)(C)C)O2)c(=O)[nH]c1=O

>  <Activity / %>
60

$$$$
>  <molecule>
Cc1cn([C@H]2C[C@H](n3nncc3-c3cc4ccccc4c4ccccc34)[C@@H](CO)O2)c(=O)[nH]c1=O

>  <Activity / %>
95

$$$$
>  <molecule>
Cc1cn([C@H]2C[C@H](n3cc(-c4cc5ccccc5c5ccccc45)nn3)[C@@H](CO[Si](C)(C)C(C)(C)C)O2)c(=O)[nH]c1=O

>  <Activity / %>
81

$$$$
>  <molecule>
Cc1cn([C@H]2C[C@H](n3nncc3-c3cc4ccccc4c4ccccc34)[C@@H](CO[Si](C)(C)C(C)(C)C)O2)c(=O)[nH]c1=O

>  <Activity / %>
100

$$$$
>  <molecule>
Cc1cn([C@H]2C[C@H](n3nncc3C3CC3)[C@@H](CO)O2)c(=O)[nH]c1=O

>  <Activity / %>
100

$$$$
>  <molecule>
Cc1cn([C@H]2C[C@H](n3nncc3C3CCCCC3)[C@@H](CO)O2)c(=O)[nH]c1=O

>  <Activity / %>
100

$$$$
>  <molecule>
Cc1cn([C@H]2C[C@H](n3nncc3C3CC3)[C@@H](CO[Si](C)(C)C(C)(C)C)O2)c(=O)[nH]c1=O

>  <Activity / %>
93

$$$$
>  <molecule>
Cc1cn([C@H]2C[C@H](n3cc(-c4ccc5[nH]ccc5c4)nn3)[C@@H](CO)O2)c(=O)[nH]c1=O

>  <Activity / %>
100

$$$$
>  <molecule>
COc1ccc2cc(C(=O)N[C@H]3C[C@H](n4cc(C)c(=O)[nH]c4=O)O[C@@H]3CO)ccc2c1

>  <Activity / %>
100

$$$$
>  <molecule>
Cc1cn([C@H]2C[C@H](N3C(=O)CSC3c3ccccc3)[C@@H](CO)O2)c(=O)[nH]c1=O (mixture of isomers)

>  <Activity / %>
100

$$$$
>  <molecule>
Cc1cn([C@H]2C[C@H](n3nncc3COc3ccccc3)[C@@H](CO)O2)c(=O)[nH]c1=O

>  <Activity / %>
100

$$$$
>  <molecule>
Cc1cn([C@H]2C[C@H](N3C(=O)CSC3c3c4ccccc4cc4ccccc34)[C@@H](CO)O2)c(=O)[nH]c1=O (mixture of isomers)

>  <Activity / %>
96

$$$$
>  <molecule>
Cc1cn([C@H]2C[C@H](n3nncc3-c3ccc(Oc4ccccc4)cc3)[C@@H](CO)O2)c(=O)[nH]c1=O

>  <Activity / %>
100

$$$$
>  <molecule>
Cc1cn([C@H]2C[C@H](NC(=O)c3ccc4ccccc4n3)[C@@H](CO[Si](C)(C)C(C)(C)C)O2)c(=O)[nH]c1=O

>  <Activity / %>
98

$$$$
>  <molecule>
Cc1cn([C@H]2C[C@H](N3C(=O)CSC3c3ccc4[nH]ccc4c3)[C@@H](CO[Si](C)(C)C(C)(C)C)O2)c(=O)[nH]c1=O (mixture of isomers)

>  <Activity / %>
99

$$$$
